- tgt: Dual specificity protein phosphatase 3 (Homo sapiens) (UniProt P51452)
- Sequence (P51452 whole entry, looked up): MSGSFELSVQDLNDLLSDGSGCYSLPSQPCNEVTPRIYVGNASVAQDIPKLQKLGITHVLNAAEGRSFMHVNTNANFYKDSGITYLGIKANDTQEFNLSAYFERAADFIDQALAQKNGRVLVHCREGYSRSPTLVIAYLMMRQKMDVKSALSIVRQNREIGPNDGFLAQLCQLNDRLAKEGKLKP
- experimental.protocol: VHR1 phosphatase inhibitors, biochemical (AID 1878)
- condition.summary: recombinant VHR phosphatase, fluorogenic substrate; at 13.3 µM; stronger effect = higher value
Out of some 1,000 compounds screened, about 200 (20%) were called active. A selection follows. Results with a measured potency or affinity are listed apart.
property.name: inhibition (%)
API: value field is a number in %; no unit string.

Previously resolved entries follow.
CCOc1c(Br)cc(C(=O)N2CCCN(C)CC2)cc1OC; 2.9
Cc1[nH]c(=O)[nH]c(=O)c1S(=O)(=O)Nc1ccc(Br)cc1F; 4.3
CSc1ncc(C(=O)Nc2cc(C)ccc2C)c(C)n1; -5.1

Query string: Query for Dual specificity protein phosphatase 3 (Homo sapiens) (UniProt P51452): what inhibition does the record show for `CCCCNC(=O)CCc1c(C)nc2c(c(C)nn2-c2ccccc2)c1C` ?
Result string: -6.7

Query string: Further, for `Cc1ccc(NC(=O)C2CCN(C(=O)c3ccco3)CC2)cc1` ?
Result string: -5.8

* * *

- tgt: Dual specificity protein phosphatase 3 (Homo sapiens) (UniProt P51452)
- experimental.protocol: VHR1 phosphatase inhibitors, biochemical (AID 1878)
- condition.summary: recombinant VHR phosphatase, fluorogenic substrate; at 13.3 µM; stronger effect = higher value
The whole screen tested about 1,000 compounds, of which about 200 (20%) were called active. These entries were drawn from the full list. Results with a measured potency or affinity are listed apart.
property.name: inhibition (%)
API: value field is a number in %; no unit string.

Previously resolved entries follow.
Fc1cc(F)nc(NCc2ccccc2)n1; 8.1
COc1ccc(-c2cc3nc4ccccc4n3c(N)c2C#N)cc1; 95.4
Cc1ccc(-n2ncc3c2CCCC3NC(=O)CCc2cnccn2)cc1C (stereo unspecified); -2.7
COCCNc1cc(C)nc2c3c(C)cc(C)nc3nn12; 9.5
COC(=O)c1cccc(CSC(=S)N2CCCC2)c1; -7.9

# ---- query compound ----
Query string: Query for Dual specificity protein phosphatase 3 (Homo sapiens) (UniProt P51452): what inhibition does the record show for `Cn1nc(C(=O)NCCCN2CCCCC2)c2c1-c1ccccc1S(=O)(=O)C2` ?
Result string: -6.6

* * *

// inhibition lookup, one value per entry
- tgt: Dual specificity protein phosphatase 3 (Homo sapiens) (UniProt P51452)
- experimental.protocol: VHR1 phosphatase inhibitors, biochemical (AID 1878)
- condition.summary: recombinant VHR phosphatase, fluorogenic substrate; at 13.3 µM; stronger effect = higher value
Out of some 1,000 compounds screened, about 200 (20%) were called active. These entries were drawn from the full list. Entries with a potency or affinity are not part of this list.
API: value field is a number in %; no unit string.

O=C(Nc1ccc2oc(-c3cccnc3)nc2c1)c1ccc2c(c1)OCCO2; 62.5
O=C1CCC(C(=O)N2CCCC2)CN1Cc1cccc(C(F)(F)F)c1 (stereo unspecified); -14.6
COc1cc2cc(C(=O)Nc3ccc4c(c3)OCCO4)[nH]c2cc1OC; -3.4

Query string: Query for Dual specificity protein phosphatase 3 (Homo sapiens) (UniProt P51452): what inhibition does the record show for `Oc1ccc(C23CC4CC(CC(C4)C2)C3)cc1O` ?
Result string: 5.9

Query string: Further, for Cc1ccc2cc(CN(CC3CCCO3)C(=O)c3cccs3)c(=O)[nH]c2c1 (stereo unspecified) ?
Result string: -11.2

Query string: Further, for O=[N+]([O-])CC(c1ccc(F)cc1)c1c[nH]c2ccccc12 (stereo unspecified) ?
Result string: -0.1

* * *

- tgt: Dual specificity protein phosphatase 3 (Homo sapiens)
- experimental.protocol: VHR1 phosphatase inhibitors, biochemical (AID 1878)
- condition.summary: recombinant VHR phosphatase, fluorogenic substrate; at 13.3 µM
Screen size: about 1,000 compounds; about 200 (20%) were called active. Cut-off read from the data, not from the text of the source: active = inhibition above about 55%; inactive = the rest. Only a sample is shown. Potency and affinity values are given separately.
# valid calls are Yes = active, No = inactive; nothing else

CCC1CCCCN1CCCNC(=O)c1ccc(CS(=O)(=O)c2ccccc2C)o1 (configuration not stated); No
CCC1CCCCN1CCCNC(=O)c1cn(C)c2ccc(S(=O)(=O)N3CCOCC3)cc2c1=O (configuration not stated); No
Cc1ccccc1NC(=O)c1cccc(NC(=O)c2ccco2)c1; No

Query string: # lookup: test call for CCOC(=O)C1(CCc2ccccc2)CCN(CC(O)CO)CC1 (configuration not stated)
Result string: No

Query string: Further, for `CCC(=O)N1CCc2cc(S(=O)(=O)CCC(=O)NCc3ccc(OC)cc3)ccc21` ?
Result string: No

Query string: Further, for `CCN(CC)CCNC(=O)CCN1N=C(c2ccccc2)CCC1=O` ?
Result string: No

Query string: Further, for `CCOC(=O)c1cc(/C(C)=N/OC(=O)c2ccc(C(C)(C)C)cc2)on1` ?
Result string: No

Query string: Further, for `COc1ccc(/C=N/NC(=O)c2[nH]c3ccc(C)cc3c2-c2ccccc2)c(C(=O)O)c1OC` ?
Result string: No

Query string: Further, for `C/C(N)=C(/C#N)C(=O)COC(=O)c1cc(-c2ccc(Br)cc2)nc2ccccc12` ?
Result string: No

Query string: Further, for `CC(C)Cn1c(=O)c2ccccc2n2c(CCC(=O)NC3CCN(Cc4ccccc4)CC3)nnc12` ?
Result string: No

Query string: Further, for `Cc1nn(CC(=O)NCCCN2CCCCC2)c(=O)c2cc(-c3ccccc3)nn12` ?
Result string: No

Query string: Further, for `CCN1CCN(C(=O)c2cc3ccc(OC)cc3[nH]2)CC1` ?
Result string: No

Query string: Further, for `C=CCNC(=O)c1ccc(CN2CCC(Cc3ccccc3)CC2)cc1` ?
Result string: No

* * *

- tgt: Dual specificity protein phosphatase 3 (Homo sapiens) (UniProt P51452)
- experimental.protocol: VHR1 phosphatase inhibitors, biochemical (AID 1878)
- condition.summary: recombinant VHR phosphatase, fluorogenic substrate; at 13.3 µM
The campaign covered roughly 1,000 compounds. About 200 (20%) were called active. No stated cut-off is given here; in the data, active means inhibition above about 55%; inactive means the rest. The list is a sample of the results. Entries with a potency or affinity are not part of this list.
# valid calls are active, inactive; nothing else

Sample answers from the record:
O=C(O)c1ccc(Nc2nc(-c3ccc([N+](=O)[O-])cc3)nc3ccccc23)cc1; active
Cn1c(=O)[nH]c(=O)c2c1nc(N1CCNCC1)n2Cc1ccccc1Cl; inactive

Query string: # lookup: test call for `O=[N+]([O-])c1ccc(-c2nnc(S)n2-c2ccccc2)cc1`
Result string: inactive

Query string: Further, for CCC1CCCCN1C(=O)c1ccc(OC2CCN(C(=O)CCOC)CC2)cc1 (stereo unspecified) ?
Result string: inactive

Query string: Further, for `O=C(CSc1n[nH]c(-c2ccccc2O)n1)NC1CCCCC1` ?
Result string: inactive

Query string: Further, for `O=C1CN(c2ccc(F)cc2)C(=S)N1c1ccccc1` ?
Result string: inactive

Query string: Further, for CC(O)CNc1nc2c(c(=O)n(Cc3ccc(Cl)cc3)c(=O)n2C)n1C (stereo unspecified) ?
Result string: inactive

Query string: Further, for `COc1ccc(Nc2ccc([N+](=O)[O-])cn2)cc1` ?
Result string: inactive

Query string: Further, for CC(=O)N1CC(=O)Nc2ccc(F)cc2C1c1ccccc1 (stereo unspecified) ?
Result string: inactive

Query string: Further, for `CCN(CC)CCC(=O)N1c2ccccc2CCc2ccc(NC(=O)OC(C)C)cc21` ?
Result string: inactive

Query string: Further, for Cc1cc(=O)oc2cc(OC(C)C(=O)NCCc3ccc(S(N)(=O)=O)cc3)ccc12 (stereo unspecified) ?
Result string: inactive

* * *

- tgt: Dual specificity protein phosphatase 3 (Homo sapiens) (UniProt P51452)
- experimental.protocol: VHR1 phosphatase inhibitors, biochemical (AID 1878)
- condition.summary: recombinant VHR phosphatase, fluorogenic substrate; at 13.3 µM; stronger effect = higher value
The whole screen tested about 1,000 compounds, of which about 200 (20%) were called active. A selection follows. Entries with a potency or affinity are not part of this list.
property.name: inhibition (%)
API: value field is a number in %; no unit string.

Cc1cc(NC(=O)C2CCCCC2)ncc1NC(=O)c1ccccn1; 9

Query string: Look up inhibition for this compound: `Cn1c2ccccc2c(=O)c2ccc(C#Cc3ccccn3)cc21`
Result string: 75.5

Query string: Further, for `COc1ccccc1-c1cc(C(=O)Nc2cccnc2Cl)no1` ?
Result string: 12.2

Query string: Further, for CC(=O)NC(Cc1ccc(F)cc1)C(=O)NC1CCN(S(=O)(=O)c2ccccc2)CC1 (stereo unspecified) ?
Result string: 41

Query string: Further, for `COc1ccc2c(c1)C(=NNC(=O)c1ccccn1)c1cc(OC)ccc1-2` ?
Result string: 99.3

Query string: Further, for `Fc1ccccc1/C=N/n1c(C2CCCCC2)n[nH]c1=S` ?
Result string: 7.2

* * *

- tgt: Dual specificity protein phosphatase 3 (Homo sapiens) (UniProt P51452)
- experimental.protocol: VHR1 phosphatase inhibitors, biochemical (AID 1878)
- condition.summary: recombinant VHR phosphatase, fluorogenic substrate; at 13.3 µM
The campaign covered roughly 1,000 compounds. About 200 (20%) were called active. Cut-off read from the data, not from the text of the source: active = inhibition above about 55%; inactive = the rest. A selection follows. Entries with a potency or affinity are not part of this list.
# valid calls are 1 for active, -1 for inactive; nothing else

CC(Cc1ccccc1)N1C(=O)c2ccccc2C1=O (centres undefined); -1
CCCN1CCN(CCCNC(=O)c2ccc(CS(=O)c3ccccc3C)o2)CC1 (centres undefined); -1
CC1=C(C(=O)OC(C)C)C(c2ccc3c(c2)OCO3)NC(=O)N1 (centres undefined); -1
CCOC(=O)c1ccc(NCCc2ccc(OC)c(OC)c2)c(N)c1; -1
CC1CCCC(C)N1/N=C/c1ccc(O)c(O)c1 (centres undefined); -1
O=C(NC(=O)c1ccccc1)Nc1ccccc1; -1
CCC(C)Nc1nc2ccccc2n2c(C)nnc12 (centres undefined); -1
COc1cccc(NC(=O)CN(C)S(=O)(=O)c2ccc3[nH]c(=O)oc3c2)c1; -1
Cc1ccccc1C1NC(=O)c2ccccc2O1 (centres undefined); -1
N=C1/C(=C\c2ccc(-c3ccc(C(=O)O)cc3)o2)C(=O)N=C2SC=C(c3ccccc3)N12; 1

Query string: # lookup: test call for `COc1ccc(/C=C2\N=C(C)OC2=O)cc1OC`
Result string: -1

Query string: Further, for COc1ccc(S(=O)(=O)NCC2CCCN(Cc3cn(C)nc3C)C2)cc1 (centres undefined) ?
Result string: -1

Query string: Further, for `Nc1nonc1-c1nc2ccccc2n1CC(=O)N/N=C/c1ccc(-c2cccc(C(=O)O)c2)o1` ?
Result string: 1

Query string: Further, for CCOC(=O)C1=C(N)Oc2ccc3ccccc3c2C1c1ccc(O)c(OC)c1 (centres undefined) ?
Result string: -1

Query string: Further, for `CC1=C(C(=O)Nc2cccc(C(=O)N3CCC(C(N)=O)CC3)c2)SCCO1` ?
Result string: -1

Query string: Further, for `N=C1/C(=C/c2ccc(-c3cccc(C(=O)O)c3)o2)C(=O)N=C2SC=C(c3ccccc3)N12` ?
Result string: 1
